Recorded IC50, one value per entry.
system: Trypanosoma cruzi; experiment: Inhibitory activity against Trypanosoma cruzi trypomastigotes; type: functional, organism-based
Provide the reading as a plain figure in µM.

In the examples that follow, each entry is paired with its recorded IC50.
[[record]]
compound = "NCCCCC(N)C(=O)NCC1CCC(CNCCCN2CCN(CCCNCC3CCCCC3)CC2)CC1 (centres undefined)"
measured_property = "IC50"
endpoint_value = 5

[[record]]
compound = "C1CCC(CNCCCN2CCN(CCCNCC3CCCCC3)CC2)CC1"
measured_property = "IC50"
endpoint_value = 5

[[record]]
compound = "NCCCCC(N)C(=O)NCC1CCC(CNCCCN2CCN(CCCNCC3CCC(CNC(=O)C(N)CCCCN)CC3)CC2)CC1 (centres undefined)"
measured_property = "IC50"
endpoint_value = 5

[[record]]
compound = "NCCCN1CCN(CCCNCC2CCCCC2)CC1"
measured_property = "IC50"
endpoint_value = 5

[[record]]
compound = "NCCCN1CCN(CCCN2C(=O)c3ccccc3C2=O)CC1"
measured_property = "IC50"
endpoint_value = 5


Input line: I am curious: what IC50 value has been reported for CC(C)(C)OC(=O)NCCCCC(NC(=O)OC(C)(C)C)C(=O)NCC1CCC(CNCCCN2CCN(CCCNCC3CCCCC3)CC2)CC1 (centres undefined) ?
Output line: 5

Input line: Would you mind telling me what IC50 value was observed for O=C1c2ccccc2C(=O)N1CCCN1CCN(CCCNCC2CCCCC2)CC1 ?
Output line: 5

Input line: What value of measured IC50 is listed for NCCCN1CCN(CCCN)CC1 ?
Output line: 5

Input line: Which IC50 is reported for this compound? CC(C)(C)OC(=O)NCCCCC(NC(=O)OC(C)(C)C)C(=O)NCC1CCC(CNCCCN2CCN(CCCNCC3CCC(CNC(=O)C(CCCCNC(=O)OC(C)(C)C)NC(=O)OC(C)(C)C)CC3)CC2)CC1 (centres undefined)
Output line: 5
